Biological target: UniProt A0A2R4LGM2
Sequence (A0A2R4LGM2 1-647): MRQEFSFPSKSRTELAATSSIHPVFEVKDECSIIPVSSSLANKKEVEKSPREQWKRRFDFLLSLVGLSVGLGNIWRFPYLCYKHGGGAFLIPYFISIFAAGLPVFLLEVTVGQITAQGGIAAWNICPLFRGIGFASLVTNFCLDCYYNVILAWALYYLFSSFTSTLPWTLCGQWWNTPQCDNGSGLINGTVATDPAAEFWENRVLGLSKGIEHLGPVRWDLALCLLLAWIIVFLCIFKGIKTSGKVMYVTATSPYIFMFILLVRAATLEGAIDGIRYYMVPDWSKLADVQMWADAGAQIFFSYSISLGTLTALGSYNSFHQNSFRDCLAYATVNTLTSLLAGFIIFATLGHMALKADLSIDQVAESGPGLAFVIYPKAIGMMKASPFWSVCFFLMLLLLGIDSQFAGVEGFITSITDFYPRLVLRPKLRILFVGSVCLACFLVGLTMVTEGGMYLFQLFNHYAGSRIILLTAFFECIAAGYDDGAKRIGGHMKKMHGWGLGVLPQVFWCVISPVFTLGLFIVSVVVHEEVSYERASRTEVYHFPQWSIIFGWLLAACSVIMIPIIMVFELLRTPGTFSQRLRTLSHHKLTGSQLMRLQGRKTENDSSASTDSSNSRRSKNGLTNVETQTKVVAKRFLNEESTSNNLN
Assay: cell-based
Conditions: read-out: EC50 of Na+ for half-maximum stimulation of transport; sodium replaced with choline, 0.1 μM [3H]taurine
Description: Human embryonic kidney-293 (HEK293 (ATCC CRL-1573, LGC standards Wesel, Germany)) cells, were grown in Dulbecco`s modified Eagle medium (DMEM) supplemented with 10% fetal bovine serum (FCS Nuaille, France), 100 units/ml penicillin and 100 μg/ml streptomycin at 37°C and with 5% CO2 in a humidified incubator. […] Surviving cells forming colonies were separated and analyzed for membrane localization of transporters and transport of taurine. […]
value-kind: EC50 (mM)
Quick note: give the figure in mM, leave out the unit.

// query For the molecule "[Na+]" , report EC50.
// result 51.4
